measuredEndpoint: Ki (nM)
Write the number in nM without appending the unit.

Return Ki measured with Estrogen receptor beta (Homo sapiens, UniProt Q92731) given this molecule: Oc1ccc(-c2nn3c(C(F)(F)F)cc(C(F)(F)F)nc3c2-c2ccc(O)cc2)cc1 48

Return Ki measured with Estrogen receptor beta (Homo sapiens, UniProt Q92731) given this molecule: Oc1ccc(-c2nn3c(C(F)(F)F)cc(C(F)(F)F)nc3c2-c2ccc(OCCN3CCCCC3)cc2)cc1 71

Return Ki measured with Estrogen receptor beta (Homo sapiens, UniProt Q92731) given this molecule: CN(C)CCOc1ccc(-c2nn3c(C(F)(F)F)cc(C(F)(F)F)nc3c2-c2ccc(O)cc2)cc1 156

Return Ki measured with Estrogen receptor beta (Homo sapiens, UniProt Q92731) given this molecule: Oc1ccc(-c2c(-c3ccccc3)nn3c(C(F)(F)F)cc(C(F)(F)F)nc23)cc1 139

* * *

assaySystem: Estrogen receptor (Homo sapiens)
Sequence (P03372 whole entry): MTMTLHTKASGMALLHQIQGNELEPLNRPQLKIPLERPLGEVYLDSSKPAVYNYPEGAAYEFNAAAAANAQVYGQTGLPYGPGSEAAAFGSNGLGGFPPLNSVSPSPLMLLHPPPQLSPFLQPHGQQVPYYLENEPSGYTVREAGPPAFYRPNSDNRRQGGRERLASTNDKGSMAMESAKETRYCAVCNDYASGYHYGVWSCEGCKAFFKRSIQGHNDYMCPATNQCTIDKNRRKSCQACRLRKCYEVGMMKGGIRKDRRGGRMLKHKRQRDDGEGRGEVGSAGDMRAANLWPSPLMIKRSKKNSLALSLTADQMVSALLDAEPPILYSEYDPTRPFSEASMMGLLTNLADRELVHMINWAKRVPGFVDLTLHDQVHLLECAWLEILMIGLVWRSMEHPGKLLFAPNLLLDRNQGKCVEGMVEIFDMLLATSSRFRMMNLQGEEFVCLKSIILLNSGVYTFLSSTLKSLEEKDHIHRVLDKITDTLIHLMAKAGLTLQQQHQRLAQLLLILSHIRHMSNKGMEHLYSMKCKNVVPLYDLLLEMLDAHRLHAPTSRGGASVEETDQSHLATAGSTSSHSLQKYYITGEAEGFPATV
measuredEndpoint: Ki
Show the value, then the unit it is measured in.

Entry Oc1ccc(-c2nn3c(C(F)(F)F)cc(C(F)(F)F)nc3c2-c2ccc(OCCN3CCCCC3)cc2)cc1 : reported Ki = ? 7 nM

Entry CN(C)CCOc1ccc(-c2nn3c(C(F)(F)F)cc(C(F)(F)F)nc3c2-c2ccc(O)cc2)cc1 : reported Ki = ? 408 nM

Entry Oc1ccc(-c2nn3c(C(F)(F)F)cc(C(F)(F)F)nc3c2-c2ccc(O)cc2)cc1 : reported Ki = ? 26 nM

Entry Oc1ccc(-c2c(-c3ccc(OCCN4CCCCC4)cc3)nn3c(C(F)(F)F)cc(C(F)(F)F)nc23)cc1 : reported Ki = ? 266 nM

Entry CN(C)CCOc1ccc(-c2c(-c3ccc(O)cc3)nn3c(C(F)(F)F)cc(C(F)(F)F)nc23)cc1 : reported Ki = ? 47 nM

Entry Oc1ccc(-c2nn3cc(O)cnc3c2-c2ccc(O)cc2)cc1 : reported Ki = ? 3330 nM

* * *

Record form. Attribute: pIC50. Fill in for each entry.
assaySystem: UniProt P03372
experimentalProtocol: Antagonist potency at ERalpha expressed in human HEC1 cells by luciferase reporter gene assay
Field pIC50 (float): negative decimal logarithm of the concentration in molar.

Return pIC50 measured with UniProt P03372 given this compound: Oc1ccc(-c2nn3c(C(F)(F)F)cc(C(F)(F)F)nc3c2-c2ccc(OCCN3CCCCC3)cc2)cc1 7.05

Return pIC50 measured with UniProt P03372 given this compound: CN(C)CCOc1ccc(-c2c(-c3ccc(O)cc3)nn3c(C(F)(F)F)cc(C(F)(F)F)nc23)cc1 6.00

Return pIC50 measured with UniProt P03372 given this compound: Oc1ccc(-c2nn3c(C(F)(F)F)cc(C(F)(F)F)nc3c2-c2ccc(O)cc2)cc1 5.22
